- tested-target: T1, cynoTIGIT (PL40461) (cynomolgus monkey)
- T1 construct: Soluble protein; also called Cyno TIGIT (Octet analyte)
- T1 sequence (chain, as listed by the source limits assumed): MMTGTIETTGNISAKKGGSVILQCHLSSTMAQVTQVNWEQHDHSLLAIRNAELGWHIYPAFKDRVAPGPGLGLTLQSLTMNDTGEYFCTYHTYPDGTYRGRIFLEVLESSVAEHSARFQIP
- measurement-notes: Octet, antibody on anti-huIgG Fc capture tips, cynoTIGIT as analyte
observation-type: pKd
Note on units: pKd is unitless, being -log10 of a concentration expressed in mol/L.

Qu. # lookup: pKd of 58A7 (antibody, V domains shown, Tested as hybridoma supernatant or purified mAb; also called 48B7) VH: QVQLQESGPGLVKPSQTLSLTCTVSGGSISSGGYYWNWIRQHPGKGLEWIGYIYYSGSTFYNPSLKSRVIISVDTSKNQFSLKLSSVTAADTAVYYCARAPRYNWNYGWFDPWGQGTLVTVSS VL: EIVLTQSPGTLSLSPGERATLSCRASQNVSSTYLAWYQQKPGQAPRLLFYGASSRATGIPDRFSRSGSGTDFTLTISRLEPEDFAVYYCQQYDVSPWTFGQGTKVEIK
Ans. 7.42
